system: Danio rerio larvae (5 dpf); assay: difference in startle response vs DMSO (percentage points); higher = stronger startle than DMSO; settings: 10 µM; exposure time 6 h
Counter-ions that a name gives are not always drawn.
Record form. Attribute: difference in startle response. Fill in for each entry.
Give bare numbers.

>>> observed("O=C(Nc1c(Cl)cncc1Cl)c1ccc(OC(F)F)c(OCC2CC2)c1")
-2.74
>>> observed("CN1C(=O)CC(C)(c2ccccc2)C1=O (stereo not drawn) [Methsuximide]")
8.76
>>> observed("C[C@@H](O[C@H]1OCCN(Cc2n[nH]c(=O)[nH]2)[C@H]1c1ccc(F)cc1)c1cc(C(F)(F)F)cc(C(F)(F)F)c1 [Aprepitant]")
-5.06
>>> observed("CC(O)C(O)[C@H]1CNc2nc(N)[nH]c(=O)c2N1 (stereo partly drawn) [(6R)-5,6,7,8-tetrahydro-L-Biopterin (hydrochloride)]")
-1.51
>>> observed("CCCCCCCCCCC[C@@H](C[C@@H]1OC(=O)[C@H]1CCCCCC)OC(=O)[C@H](CC(C)C)NC=O")
0.288
>>> observed("O=C(c1ccc(F)c(F)c1Nc1ccc(I)cc1F)N1CC(O)([C@@H]2CCCCN2)C1")
-2.69
>>> observed("COc1ccnc(C[S+]([O-])c2nc3cc(OC(F)F)ccc3[nH]2)c1OC (stereo not drawn)")
2.07

With those in mind, consider the next compound.
IN: Which difference in startle response value is on record for N#CC[C@H](C1CCCC1)n1cc(-c2ncnc3[nH]ccc23)cn1 [Ruxolitinib (phosphate)] ?
OUT: 4.35

====

tested on: Danio rerio larvae (5 dpf); assay: difference in excitability vs DMSO (percentage points); higher = more excitable than DMSO; conditions: 10 µM; exposure time 6 h
Structures can show the parent of a compound that is named as a salt.
Record form. Attribute: difference in excitability. Fill in for each entry.
Give bare numbers.

>>> observed("Cc1cccc(CN2CCN(C(c3ccccc3)c3ccc(Cl)cc3)CC2)c1 (centres undefined) [Meclizine (hydrochloride)]")
6.31
>>> observed("Cc1cc(C(=O)NNCc2ccccc2)no1")
9.42
>>> observed("CC1Cc2ccccc2N1NC(=O)c1ccc(Cl)c(S(N)(=O)=O)c1 (centres undefined) [Indapamide]")
4.58

Please give difference in excitability, item by item, for the list that follows.
1. CNC1(C)C2CCC(C2)C1(C)C (centres undefined) [Mecamylamine (hydrochloride)]
2. CNC(=C[N+](=O)[O-])NCCSCc1csc(CN(C)C)n1
3. C/C=C1\NC(=O)[C@H]2CSSCC/C=C/[C@H](CC(=O)N[C@H](C(C)C)C(=O)N2)OC(=O)[C@H](C(C)C)NC1=O
4. CN(C)CCc1c[nH]c2ccc(C[C@H]3COC(=O)N3)cc12
5. N#CC[C@H](C1CCCC1)n1cc(-c2ncnc3[nH]ccc23)cn1 [Ruxolitinib (phosphate)]
6. OC[C@@H](O)[C@@H](O)[C@H](O)[C@H](O)CO

OUT:
1. 3.59
2. -3.87
3. 2.86
4. -7.59
5. -1.61
6. 1.16

====

tested on: Danio rerio larvae (5 dpf); test: difference in activity during first hour vs DMSO (percentage points); higher = more activity than DMSO; conditions: 10 µM; exposure time 6 h
Where a name gives a salt, the structure may show the parent alone.
Entries are grouped by difference in activity during first hour into these classes: lower band (below 1), central band (1 to below 8), upper band (8 or more)

The examples below pair each entry with its known result.
>>> label("Cc1ccnc2c1NC(=O)c1cccnc1N2C1CC1")
"lower band"
>>> label("COC(=O)Nc1nc2cc(C(=O)c3ccccc3)ccc2[nH]1")
"upper band"
>>> label("CCCCc1nc(Cl)c(CO)n1Cc1ccc(-c2ccccc2-c2nnn[nH]2)cc1 [Losartan (potassium salt)]")
"central band"
>>> label("CN(C)CCOC(C)(c1ccccc1)c1ccccn1 (stereo not drawn) [Doxylamine (succinate)]")
"central band"
>>> label("C[C@]12CCC3=C4CCC(=O)C=C4CC[C@H]3[C@@H]1CC[C@@]2(O)CC#N")
"upper band"

Now examine the next entry.
IN: Please let me know in which category the item CN1[C@@H]2CC[C@H]1C[C@@H](OC(c1ccccc1)c1ccccc1)C2 [Benztropine (mesylate)] belongs.
OUT: upper band

====

system: Danio rerio larvae (5 dpf); test: difference in combined optomotor response to red, green and blue moving lines vs DMSO (percentage points); higher = stronger optomotor response than DMSO; details: 10 µM; exposure time 6 h
Counter-ions that a name gives are not always drawn.
EXPERIMENTAL_ENDPOINT: difference
Give bare numbers.

>>> observed("C[C@H](Cc1cc2c(c(C(N)=O)c1)N(CCCO)CC2)NCCOc1ccccc1OCC(F)(F)F")
4.97
>>> observed("CCC(=O)O[C@]1(C(=O)CCl)[C@@H](C)C[C@H]2[C@@H]3CCC4=CC(=O)C=C[C@]4(C)[C@@]3(F)[C@@H](O)C[C@@]21C [Clobetasol Propionate]")
4.92
>>> observed("S=c1nc[nH]c2nc[nH]c12 [6-Mercaptopurine (hydrate)]")
1.98

Please give difference, item by item, for the list that follows.
1. CCC1=C(C)CN(C(=O)NCCc2ccc(S(=O)(=O)NC(=O)N[C@H]3CC[C@H](C)CC3)cc2)C1=O [Glimepiride]
2. Cc1cc(C(C)(C)C)c(O)c(C)c1CC1=NCCN1 [Oxymetazoline (hydrochloride)]
3. C=C1/C(=C\C=C2/CCC[C@]3(C)[C@@H]([C@H](C)/C=C/[C@H](C)C(C)C)CC[C@@H]23)C[C@@H](O)C[C@@H]1O [1-hydroxy Vitamin D2]
4. Cc1ccc(C)c(OCCCC(C)(C)C(=O)O)c1

OUT:
1: -2.24; 2: 0.729; 3: 6.19; 4: 4.28

====

test system: Danio rerio larvae (5 dpf); assay: difference in combined optomotor response to red, green and blue moving lines vs DMSO (percentage points); higher = stronger optomotor response than DMSO; details: 10 µM; exposure time 6 h
Structures can show the parent of a compound that is named as a salt.
EXPERIMENTAL_ENDPOINT: difference
Numbers only.

Below, 2 molecules whose answers are already recorded.
>>> observed("C[C@]12CCC3=C4CCC(=O)C=C4CC[C@H]3[C@@H]1CC[C@@]2(O)CC#N [Dienogest]")
1.22
>>> observed("CC(C)Cc1ccc(C(C)C(=O)O)cc1 (racemic) [(±)-Ibuprofen]")
6.34

Please give difference, item by item, for the list that follows.
1. O=C1CN2Cc3c(ccc(Cl)c3Cl)N=C2N1 [Anagrelide (hydrochloride)]
2. NC(=O)C(c1ccccc1)(c1ccccc1)[C@@H]1CCN(CCc2ccc3c(c2)CCO3)C1 [Darifenacin (hydrobromide)]

OUT:
[3.07, -6.74]

====

tested on: Danio rerio larvae (5 dpf); assay: difference in combined optomotor response to red, green and blue moving lines vs DMSO (percentage points); higher = stronger optomotor response than DMSO; conditions: 10 µM; exposure time 6 h
Structures can show the parent of a compound that is named as a salt.
EXPERIMENTAL_ENDPOINT: difference
Numbers only.

Below, 5 molecules whose answers are already recorded.
>>> observed("Cc1ncc(CO)c(CO)c1O")
4.65
>>> observed("CC(=O)O[C@]1(C(C)=O)CC[C@H]2[C@@H]3CCC4=CC(=O)CCC4=C3[C@@H](c3ccc(N(C)C)cc3)C[C@@]21C [Ulipristal Acetate]")
-10.6
>>> observed("Cc1nc(-c2ccc(OCC(C)C)c(C#N)c2)sc1C(=O)O")
5.26
>>> observed("Cc1cccc(CN2CCN(C(c3ccccc3)c3ccc(Cl)cc3)CC2)c1 (centres undefined) [Meclizine (hydrochloride)]")
-14.3
>>> observed("CCCSc1ccc2[nH]c(NC(=O)OC)nc2c1")
3

Please give difference, item by item, for the list that follows.
1. CS(=O)(=O)OCCCCOS(C)(=O)=O
2. CN1C(=O)CC(C)(c2ccccc2)C1=O (centres undefined) [Methsuximide]
3. Cn1c(=O)cc(N2CCC[C@@H](N)C2)n(Cc2ccccc2C#N)c1=O [Alogliptin (benzoate salt)]
4. CC(C)N1CCN(c2ccc(OCC3COC(Cn4cncn4)(c4ccc(Cl)cc4Cl)O3)cc2)CC1 (centres undefined)

OUT:
1: 3.07; 2: 10.3; 3: 0.5; 4: 0.243

====

tested on: Danio rerio larvae (5 dpf); assay: difference in startle response vs DMSO (percentage points); higher = stronger startle than DMSO; conditions: 10 µM; exposure time 6 h
Counter-ions that a name gives are not always drawn.
Outcome: true (1) for difference in startle response of at least -2; false (0) for anything lower.

The examples below pair each entry with its known result.
>>> label("O=C(O)P(=O)(O)O [Foscarnet (sodium salt)]")
"true (1)"
>>> label("C[C@H](N)[C@H](O)c1cccc(O)c1 [Metaraminol (tartrate)]")
"true (1)"
>>> label("Nc1nc(F)nc2c1ncn2[C@@H]1O[C@H](COP(=O)(O)O)[C@@H](O)[C@@H]1O [Fludarabine Phosphate]")
"true (1)"

IN: Entry CC1(C)S[C@@H]2[C@H](NC(=O)[C@H](N)c3ccccc3)C(=O)N2[C@H]1C(=O)O [Ampicillin (sodium salt)] : is its difference in startle response no less than -2?
OUT: true (1)

IN: Entry "N#Cc1ccc(Oc2ccc3c(c2)COB3O)cc1" : is its difference in startle response no less than -2?
OUT: true (1)

IN: Entry "C[C@@H]1CCN(C(=O)CC#N)C[C@@H]1N(C)c1ncnc2[nH]ccc12" : is its difference in startle response no less than -2?
OUT: false (0)
